System: HDAC
Assay: HDAC fluorimetric assay kit (AK-500, Biomol), HeLa nuclear extract
Type: biochemical
Description: HDAC inhibitors were screened using an HDAC fluorimetric assay kit (AK-500, Biomol, Plymouth Meeting, Pa.). […] Each assay was setup as follows: Defrosted all kit components and kept on ice until use. […] Prepared dilutions of Trichostatin A (TSA, positive control) and tested compounds in assay buffer (5× of final concentration). Diluted Fluor de Lys™ Substrate in assay buffer to 100 uM (50 fold=2× final). […]
Record form. Attribute: IC50. Fill in for each entry.

Exercise: Please provide the recorded IC50 for C[C@@H](Nc1ncnc2[nH]c(-c3ccc(NC(=O)Nc4ccc(C(=O)NO)cc4)cc3)cc12)c1ccccc1 [Compound 46] , tested on HDAC.
Key: 0.1 to 1 µM

Exercise: Give IC50 (HDAC) of the following compound: C[C@@H](Nc1ncnc2[nH]c(-c3ccc(CN4CCN(CC(=O)NO)CC4)cc3)cc12)c1ccccc1 [Compound 11]
Key: > 10 µM

Exercise: Param readout = IC50; param system = HDAC; param query = C[C@@H](Nc1ncnc2[nH]c(-c3ccc(OCC(=O)NO)cc3)cc12)c1ccccc1 [Compound 17] ; response: value
Key: < 0.1 µM

Exercise: Notebook entry, HDAC assay: IC50 of C[C@@H](Nc1ncnc2[nH]c(-c3ccc(CN4CCN(CCCCC(=O)NO)CC4)cc3)cc12)c1ccccc1 [Compound 14] = ?
Key: 1 to 10 µM

----------
System: HDAC
Test: HDAC fluorimetric assay kit (AK-500, Biomol), HeLa nuclear extract
Assay type: biochemical
Field: IC50. Provide a value for each of the molecules that follow.

Exercise: What IC50 value was documented for this molecule, C[C@@H](Nc1ncnc2[nH]c(-c3ccc(CN4CCC(NCCCCCCCC(=O)NO)CC4)cc3)cc12)c1ccccc1 [Compound 57] ?
Key: 0.1 to 1 µM

Exercise: IC50 for C[C@@H](Nc1ncnc2[nH]c(-c3ccc(CN4CCN(CCCCCC(=O)NO)CC4)cc3)cc12)c1ccccc1 [Compound 15] ?
Key: 0.1 to 1 µM

Exercise: IC50 for C[C@@H](Nc1ncnc2[nH]c(-c3ccc(CNCCC(=O)NO)cc3)cc12)c1ccccc1 [Compound 2] ?
Key: > 10 µM

Exercise: Tell me the measured IC50 of C[C@@H](Nc1ncnc2[nH]c(-c3ccc(C(=O)NO)cc3)cc12)c1ccccc1 [Compound 39] , please.
Key: 0.1 to 1 µM

Exercise: Entry C[C@@H](Nc1ncnc2[nH]c(-c3ccc(CNCCCCCC(=O)NO)cc3)cc12)c1ccccc1 [Compound 32] has what IC50?
Key: 0.1 to 1 µM

Exercise: Need IC50 of C[C@@H](Nc1ncnc2[nH]c(-c3ccc(OCCCCCCC(=O)NO)cc3)cc12)c1ccccc1 [Compound 22] , thanks.
Key: < 0.1 µM

Exercise: Which IC50 is listed for C[C@@H](Nc1ncnc2[nH]c(-c3ccc(OCCNCCCCCCC(=O)NO)cc3)cc12)c1ccccc1 [Compound 60] ?
Key: 0.1 to 1 µM

Exercise: Entry under review: C[C@@H](Nc1ncnc2[nH]c(-c3ccc(NCCCCCCC(=O)NO)cc3)cc12)c1ccccc1 [Compound 67] . Reported IC50?
Key: < 0.1 µM

Exercise: I am curious: what IC50 value has been reported for C[C@@H](Nc1ncnc2[nH]c(-c3ccc(C(=O)NCCNCCCCCC(=O)NO)cc3)cc12)c1ccccc1 [Compound 30] ?
Key: 0.1 to 1 µM

Exercise: Can you share its IC50? I mean this molecule: C[C@@H](Nc1ncnc2c1cc(-c1ccc(C(=O)NCCNCCCCCCC(=O)NO)cc1)n2C)c1ccccc1 [Compound 58]
Key: 0.1 to 1 µM

Exercise: Could you tell me which IC50 is on file for C[C@@H](Nc1ncnc2[nH]c(-c3ccc(CN4CCC(NCCCCCCC(=O)NO)CC4)cc3)cc12)c1ccccc1 [Compound 56] ?
Key: 1 to 10 µM

Exercise: Item under review: C[C@@H](Nc1ncnc2[nH]c(-c3ccc(C(=O)NCCNCC(=O)NO)cc3)cc12)c1ccccc1 [Compound 28] . Reported IC50?
Key: > 10 µM

Exercise: Requested field: IC50. Item: C[C@@H](Nc1ncnc2[nH]c(-c3ccc(OCCCCCCC(=O)NO)cc3)cc12)c1ccc(F)cc1 [Compound 37]
Key: < 0.1 µM

Exercise: Return reported IC50; argument: C[C@@H](Nc1ncnc2[nH]c(-c3ccc(OCCCCC(=O)NO)cc3)cc12)c1ccccc1 [Compound 20]
Key: 0.1 to 1 µM

Exercise: Find the recorded IC50 belonging to C[C@@H](Nc1ncnc2[nH]c(-c3ccc(OCCCC(=O)NO)cc3)cc12)c1ccccc1 [Compound 19] and report it.
Key: 0.1 to 1 µM

----------
ENDPOINT_LABEL: IC50

Exercise: So what IC50 did C[C@@H](Nc1ncnc2[nH]c(-c3ccc(OCCCC(=O)NO)cc3)cc12)c1ccccc1 [Compound 19] get with human VEGFR2 (Homo sapiens, UniProt P35968)?
Key: 100 to 1000 nM

Exercise: Recorded IC50 for C[C@@H](Nc1ncnc2[nH]c(-c3ccc(OCCCCCC(=O)NO)cc3)cc12)c1ccccc1 [Compound 21] with human VEGFR2 (Homo sapiens, UniProt P35968), please?
Key: 1000 to 10000 nM

Exercise: Hello, I am looking for reported IC50 with human VEGFR2 (Homo sapiens, UniProt P35968) for C[C@@H](Nc1ncnc2[nH]c(-c3ccc(CNCc4ccc(/C=C/C(=O)NO)cc4)cc3)cc12)c1ccccc1 [Compound 45] . Could you help?
Key: > 10000 nM

Exercise: Lab note: need IC50 for C[C@@H](Nc1ncnc2[nH]c(-c3ccc(NCc4ccc(C(=O)NO)cc4)cc3)cc12)c1ccccc1 [Compound 43] on human VEGFR2 (Homo sapiens, UniProt P35968), anyone have it?
Key: 1000 to 10000 nM

Exercise: Recall the recorded IC50 for C[C@@H](Nc1ncnc2[nH]c(-c3ccc(CN4CCN(CCCCCC(=O)NO)CC4)cc3)cc12)c1ccc(F)cc1 [Compound 35] with human VEGFR2 (Homo sapiens, UniProt P35968) and state it.
Sequence (P35968 807-1356 limits assumed): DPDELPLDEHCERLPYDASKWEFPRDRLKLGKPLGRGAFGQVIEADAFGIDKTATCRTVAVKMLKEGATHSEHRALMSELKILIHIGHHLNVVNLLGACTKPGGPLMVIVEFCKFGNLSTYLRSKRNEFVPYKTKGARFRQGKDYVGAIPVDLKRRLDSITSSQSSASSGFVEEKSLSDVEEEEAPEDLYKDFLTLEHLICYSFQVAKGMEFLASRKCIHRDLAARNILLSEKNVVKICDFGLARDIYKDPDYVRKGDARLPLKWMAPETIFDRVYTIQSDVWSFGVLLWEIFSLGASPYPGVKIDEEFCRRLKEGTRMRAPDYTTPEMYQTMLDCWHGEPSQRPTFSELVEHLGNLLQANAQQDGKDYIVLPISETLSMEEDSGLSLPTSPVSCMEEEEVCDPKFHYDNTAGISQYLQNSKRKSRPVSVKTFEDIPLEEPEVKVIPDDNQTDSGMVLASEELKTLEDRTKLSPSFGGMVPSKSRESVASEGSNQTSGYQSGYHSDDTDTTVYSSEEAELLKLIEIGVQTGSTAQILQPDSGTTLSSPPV
Key: 100 to 1000 nM

Exercise: API: value(readout= IC50, system= human VEGFR2 (Homo sapiens, UniProt P35968), query= C[C@@H](Nc1ncnc2[nH]c(-c3ccc(CNCCCCCCC(=O)NO)cc3)cc12)c1ccccc1 [Compound 33] )
Key: 100 to 1000 nM

Exercise: # query: IC50 | item C[C@@H](Nc1ncnc2[nH]c(-c3ccc(CN4CCN(CCC(=O)NO)CC4)cc3)cc12)c1ccccc1 [Compound 12] | system: human VEGFR2 (Homo sapiens, UniProt P35968)
Key: 100 to 1000 nM

Exercise: human VEGFR2 (Homo sapiens, UniProt P35968) / IC50 / C[C@@H](Nc1ncnc2[nH]c(-c3ccc(CN4CCN(CCCCCCC(=O)NO)CC4)cc3)cc12)c1ccccc1 [Compound 16] : value?
Key: 100 to 1000 nM

Exercise: Notebook entry, human VEGFR2 (Homo sapiens, UniProt P35968) assay: IC50 of C[C@@H](Nc1ncnc2[nH]c(-c3ccc(NCc4ccc(/C=C/C(=O)NO)cc4)cc3)cc12)c1ccccc1 [Compound 42] = ?
Key: 1000 to 10000 nM

Exercise: Give IC50 (human VEGFR2 (Homo sapiens, UniProt P35968)) of the following molecule: O=C(NO)c1ccc(-c2cc3c(NCc4ccccc4)ncnc3[nH]2)cc1 [Compound 40]
Key: 1000 to 10000 nM

Exercise: Lab request: please report IC50 under test system human VEGFR2 (Homo sapiens, UniProt P35968) for C[C@@H](Nc1ncnc2[nH]c(-c3ccc(CNCc4ccc(C(=O)NO)cc4)cc3)cc12)c1ccccc1 [Compound 44]
Key: 100 to 1000 nM

Exercise: Give human VEGFR2 (Homo sapiens, UniProt P35968) IC50 for C[C@@H](Nc1ncnc2[nH]c(-c3ccc(NCCCCCCC(=O)NO)cc3)cc12)c1ccccc1 [Compound 67]
Key: 100 to 1000 nM

Exercise: Request body: readout IC50, system human VEGFR2 (Homo sapiens, UniProt P35968), query C[C@@H](Nc1ncnc2[nH]c(-c3ccc(OCCNCCCCCCC(=O)NO)cc3)cc12)c1ccccc1 [Compound 60] . Return the value.
Key: < 100 nM

Exercise: Form: Entry = C[C@@H](Nc1ncnc2[nH]c(-c3ccc(CN4CCN(CCCCCC(=O)NO)CC4)cc3)cc12)c1ccccc1 [Compound 15] | System = human VEGFR2 (Homo sapiens, UniProt P35968) | IC50 = ____
Key: 100 to 1000 nM

Exercise: API: value(readout=IC50, system=human VEGFR2 (Homo sapiens, UniProt P35968)) for record C[C@@H](Nc1ncnc2[nH]c(-c3ccc(C(=O)NCCNCCCCCC(=O)NO)cc3)cc12)c1ccccc1 [Compound 30]
Key: 100 to 1000 nM

Exercise: Param readout = IC50; param system = human VEGFR2 (Homo sapiens, UniProt P35968); param query = C[C@@H](Nc1ncnc2[nH]c(-c3ccc(OCCCCCCC(=O)NO)cc3)cc12)c1ccccc1 [Compound 22] ; response: value
Key: < 100 nM

Exercise: Give recorded IC50 with human VEGFR2 (Homo sapiens, UniProt P35968) for the following molecule: C[C@@H](Nc1ncnc2[nH]c(-c3ccc(NCCCCCC(=O)NO)cc3)cc12)c1ccccc1 [Compound 66]
Key: < 100 nM

Exercise: Find IC50 (human VEGFR2 (Homo sapiens, UniProt P35968)) for the entry C[C@@H](Nc1ncnc2[nH]c(-c3ccc(CN4CCN(CC(=O)NO)CC4)cc3)cc12)c1ccccc1 [Compound 11]
Key: < 100 nM

Exercise: Param readout= IC50; system= human VEGFR2 (Homo sapiens, UniProt P35968); entry= C[C@@H](Nc1ncnc2[nH]c(-c3ccc(CN4CCN(CCCC(=O)NO)CC4)cc3)cc12)c1ccccc1 [Compound 13] ; returns value.
Key: 100 to 1000 nM

Exercise: Give human VEGFR2 (Homo sapiens, UniProt P35968) IC50 for C[C@@H](Nc1ncnc2[nH]c(-c3ccc(NC(=O)CCC(=O)NO)cc3)cc12)c1ccccc1 [Compound 24]
Key: 100 to 1000 nM

Exercise: Reported IC50 for human VEGFR2 (Homo sapiens, UniProt P35968), given C[C@@H](Nc1ncnc2[nH]c(-c3ccc(CNCCCCCC(=O)NO)cc3)cc12)c1ccccc1 [Compound 32] ?
Key: 100 to 1000 nM

Exercise: Which IC50 is reported with human VEGFR2 (Homo sapiens, UniProt P35968) for this entry: C[C@@H](Nc1ncnc2[nH]c(-c3ccc(CNCCC(=O)NO)cc3)cc12)c1ccccc1 [Compound 2] ?
Key: 100 to 1000 nM

Exercise: Record C[C@@H](Nc1ncnc2[nH]c(-c3ccc(NC(=O)CCCC(=O)NO)cc3)cc12)c1ccccc1 [Compound 25] : what is its IC50 with human VEGFR2 (Homo sapiens, UniProt P35968)?
Key: 100 to 1000 nM

Exercise: Form entry - test system: human VEGFR2 (Homo sapiens, UniProt P35968); read-out: IC50; molecule: C[C@@H](Nc1ncnc2c1cc(-c1ccc(C(=O)NCCNCCCCCCC(=O)NO)cc1)n2C)c1ccccc1 [Compound 58];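 note: recombinant GST-His-tagged human VEGFR2 kinase domain phosphorylating biotinylated gastrin precursor peptide, 30 min at room temperature, phosphotyrosine detected by Europium-labelled antibody time-resolved fluorescence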
Key: 1000 to 10000 nM

The reported numbers originate from patent US20080161320A1.
